test system: Alopecurus myosuroides; assay: Pre-emergence herbicidal evaluation, ALOMY; type: in vivo; conditions: 0.800 kg/ha, three weeks after treatment
Parameter: phytotoxicity rating ALOMY. Scope: all listed entries.

Structure	phytotoxicity rating ALOMY
CC1=CC(N(C(=O)COc2nc3ccccc3o2)C(C)C)=CC(C)(C)C1	9 (9 - Complete kill)
CC1=CC(N(C(=O)COc2nnc(C(F)(F)F)s2)C(C)C)=CC(C)(C)C1	9 (9 - Complete kill)
CCN(C(=O)COc1nnc(C(F)(F)F)s1)C1=CC(C)(C)CC(C)=C1	7 (7 - Good herbicidal effect)
CCc1nnc(OCC(=O)N(C)C2=CC(C)(C)CC(C)=C2)s1	9 (9 - Complete kill)
CCN(C(=O)COc1nc2ccccc2o1)C1=CC(C)(C)CC(C)=C1	6 (6 - Herbicidal effect)
CC1=CC(N(C)C(=O)COc2nc3ccccc3o2)=CC(C)(C)C1	9 (9 - Complete kill)
CC1=CC(N(C)C(=O)COc2nnc(C(F)(F)C(F)(F)F)s2)=CC(C)(C)C1	5 (5 - Definite injury)
CCc1nnc(OCC(=O)N(CC)C2=CC(C)(C)CC(C)=C2)s1	9 (9 - Complete kill)
CCN(C(=O)COc1nnc(C(F)(F)C(F)(F)F)s1)C1=CC(C)(C)CC(C)=C1	8 (8 - Approaching complete kill)
CC1=CC(N(C)C(=O)COc2nnc(C(F)(F)F)s2)=CC(C)(C)C1	9 (9 - Complete kill)
CCc1nnc(OCC(=O)N(C2=CC(C)(C)CC(C)=C2)C(C)C)s1	9 (9 - Complete kill)
